// merged dataset of IC50 values, system = UniProt P50281, multiple refs

Look over these answered cases.
molecule | IC50
COc1cncc(N2CCN(C(=O)[C@@H](C)C[C@@]3(C4CC4)NC(=O)NC3=O)C[C@@H]2C)c1 (stereo in doubt) | > 100 nM
CC1(C)OC[C@H](C(CS(=O)(=O)N2CCc3ccccc3C2)N(O)C=O)O1 (stereo partly drawn) | > 5000 nM

Attention now turns to another entry.
IC50 of COc1cc(C2CCN(C(=O)CC[C@@]3(C)NC(=O)NC3=O)CC2)cc(F)c1Cl , assay on UniProt P50281, is > 100 nM

* * *

// merged dataset of IC50 values, system = Matrix metalloproteinase-14 (Homo sapiens), multiple refs

Look over these answered cases.
molecule | readout-value
COc1cc(Cl)c(C)cc1C1CCN(C(=O)CC[C@@]2(C)NC(=O)NC2=O)CC1 | > 0.1 µM
Cc1cc(C2CCN(S(=O)(=O)C3(C(=O)NO)CCN(C)CC3)CC2)ccc1-c1cccc(OCCO)n1 | > 2 µM
COc1cc(C)cc(COc2ccc(S(=O)(=O)CC(C=C3CCC4(CC3)OCCO4)N(O)C=O)cc2)c1 (stereo not drawn) | > 100 µM

Attention now turns to another entry.
IC50 of COc1cc(C2CCN(C(=O)CC[C@@]3(C)NC(=O)NC3=O)CC2)cc(C)c1Cl , assay on Matrix metalloproteinase-14 (Homo sapiens), is > 0.1 µM

* * *

// merged dataset of pIC50 values, system = Matrix metalloproteinase-14 (Homo sapiens), multiple refs
pIC50: −log10 of the molar value.
endpoint: pIC50

Look over these answered cases.
compound | pIC50
O=C(O)[C@@H]1[C@@H](Cn2nnc3ccccc3c2=O)CC[C@H]1C(=O)c1ccc(OCC2CCOCC2)cc1 (stereo in doubt) | 7.00
O=CON=C1CCC(=CC(CS(=O)(=O)c2ccc(OCc3ccc4ccccc4n3)cc2)N(O)C=O)CC1 (stereo not shown) | 4.22
O=C(O)[C@@H]1[C@@H](Cn2nnc3ccc(C(F)(F)F)cc3c2=O)CC[C@H]1C(=O)c1ccc(OCc2cccc(N3CCOC3=O)c2)cc1 (single isomer, unassigned) | 6.77
CCC(CC)C(=O)N1CCC(=CC(CS(=O)(=O)c2ccc(OCc3cc(C)nc4ccccc34)cc2)N(O)C=O)C(C)C1 (stereo not shown) | 4.19
O=C(O)[C@H]1[C@H](Cn2nnc3ccc(C(F)(F)F)cc3c2=O)CC[C@@H]1C(=O)c1ccc(OCCC2CCOCC2)cc1 (stereo in doubt) | 6.22

A. C[C@@H](NC(=O)[C@@H](NC(=O)[C@H](CCCc1ccc(-c2ccccc2)c(Cl)c1)CC(=O)NO)C(C)(C)C)c1ccccc1
B. Cc1cc(Cl)cc(COc2ccc(S(=O)(=O)CC(CC3CCC(=O)CC3)N(O)C=O)cc2)c1 (stereo not shown)
QUERY: Select one. Lower pIC50: A or B Which one? Tell me its label.
RESULT: B

* * *

// merged dataset of IC50 values, system = UniProtKB P50281, multiple refs
endpoint: IC50 (µM)

Look over these answered cases.
molecule | IC50 (µM)
O=C(O)[C@H]1[C@H](Cn2nnc3ccc(C(F)(F)F)cc3c2=O)CC[C@@H]1C(=O)c1ccc(OCC2CCCCC2)cc1 (racemic) | 0.46
Cc1cncc(C(CS(=O)(=O)c2ccc(OCc3cc(C)nc4ccc(C)cc34)cc2)N(O)C=O)c1 (centres unmarked) | 55
Cc1ccc2nc(C)cc(COc3ccc(S(=O)(=O)CC(CC4CCC(=NO)CC4)N(O)C=O)cc3)c2c1 (centres unmarked) | 31

I. Cc1cc(Cl)cc(COc2ccc(S(=O)(=O)CC(CC3CCC4(CC3)OCCO4)N(O)C=O)cc2)c1 (centres unmarked)
II. NC(=O)c1cccc(COc2ccc3oc(C(=O)CC(CCn4nnc5ccccc5c4=O)C(=O)O)cc3c2)c1 (single isomer, unassigned; (+))
III. Cc1ccc2nc(C)cc(COc3ccc(S(=O)(=O)CC(C=C4CCC(=NO)CC4)N(O)C=O)cc3)c2c1 (centres unmarked)
QUERY: Reorder the items by IC50, least to greatest. Return value: ordered labels per request.
RESULT: II, I, III
(II: 7.9 µM, I: 25 µM, III: 40 µM)
